TARGET OF ASSAY: RORγ (Homo sapiens (Human), UniProt P51449)
Sequence (P51449 269-508): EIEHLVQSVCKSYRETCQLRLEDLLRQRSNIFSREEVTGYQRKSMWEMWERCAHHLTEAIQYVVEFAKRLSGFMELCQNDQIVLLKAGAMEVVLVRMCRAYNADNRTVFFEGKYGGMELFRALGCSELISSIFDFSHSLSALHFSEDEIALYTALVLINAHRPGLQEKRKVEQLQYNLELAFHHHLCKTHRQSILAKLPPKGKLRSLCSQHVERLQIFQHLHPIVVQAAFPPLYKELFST
ASSAY PROTOCOL: RORγ Reporter Assay (Gal4)
Assay type: cell-based
EXPERIMENTAL CONTEXT: HEK293 cells co-transfected with RORγ LBD-Gal4 and luciferase reporter; 24 h incubation; absolute IC50
Listed here are compounds together with their documented IC50.
Write down the numeric answer in nM and omit the unit.

Worked cases, IC50 given:
INSERT INTO assay_data (compound, observable, unit_annotation, numeric_value) VALUES
  ('CCN(CC1(F)CCC(C(F)(F)F)CC1)c1ncnc(NC[C@@H]2CCN(CC(N)=O)C[C@H]2O)c1F (single isomer, unassigned) [Example A6-7-2]', 'IC50', 'nM', 69),
  ('CCN(C[C@H]1CC[C@]2(CC1)CC2(F)F)c1ncnc(NC[C@@H]2CCN(CC(N)=O)C[C@H]2O)c1F (relative stereo)', 'IC50', 'nM', 35),
  ('CCN(C[C@H]1CC[C@H](C(F)(F)F)CC1)c1ncnc(NC[C@@]2(O)CCN(CC(N)=O)C[C@@H]2O)c1F (single isomer, unassigned) [AD-6-2]', 'IC50', 'nM', 15),
  ('CCN(C[C@H]1CC[C@H](C(F)(F)F)CC1)c1ncnc(NC[C@@]2(O)CCN(CC(N)=O)C[C@@H]2O)c1F (single isomer, unassigned) [AD-6-1]', 'IC50', 'nM', 1.2),
  ('CCN(C[C@H]1CC[C@H](C(F)(F)F)CC1)c1ncnc2c1ccn2C[C@]1(O)CCN(CC(N)=O)C[C@H]1O (single isomer, unassigned) [BD-5-1-1]', 'IC50', 'nM', 3.3);

# evaluate next
Considering CCN(C[C@H]1CC[C@@]2(CC1)CC2(F)F)c1ncnc(NC[C@@H]2CCN(CC(N)=O)C[C@H]2O)c1F (single isomer, unassigned) , its IC50 with RORγ (Homo sapiens (Human), UniProt P51449) was recorded as 49
